These entries and their values trace back to patent US4708954A.

measurement.protocol: Acute toxicity test (oral, lethal dose by deaths over 7 days)
conditions: mouse, in vivo, suspended in 0.5% aqueous C.M.C., fasted 20 hours, deaths for 7 days
Where a name gives a salt, the structure may show the parent alone.
As shown below, each of these compounds has a reported LD50 at 168 h value.

# compound, LD50 at 168 h
data = [
    ("CCNC(=O)NC(=O)C(=O)O [compound 2, 5-ethyloxaluric acid ammonium salt]", "3000 to 4000 mg/kg"),
    ("CCCCNC(=O)NC(=O)C(=O)OC [compound 13, 5-butyloxaluric acid methyl ester]", "1000 to 2000 mg/kg"),
    ("CCCCOC(=O)C(=O)NC(=O)NC [compound 20, 5-methyloxaluric acid butyl ester]", "> 4000 mg/kg"),
]
